molecular target: Rat CYP2A2 (Rattus norvegicus, UniProt P15149); test: Turnover of fluorometric substrates by rat CYP2A2; conditions: substrate uM: Ia 2, AMMC 20, CEC 40, MFC 50, BFC 50, BQ 40, BzRes 50; 30 min; enzyme 50 nM
Sequence (P15149 whole entry): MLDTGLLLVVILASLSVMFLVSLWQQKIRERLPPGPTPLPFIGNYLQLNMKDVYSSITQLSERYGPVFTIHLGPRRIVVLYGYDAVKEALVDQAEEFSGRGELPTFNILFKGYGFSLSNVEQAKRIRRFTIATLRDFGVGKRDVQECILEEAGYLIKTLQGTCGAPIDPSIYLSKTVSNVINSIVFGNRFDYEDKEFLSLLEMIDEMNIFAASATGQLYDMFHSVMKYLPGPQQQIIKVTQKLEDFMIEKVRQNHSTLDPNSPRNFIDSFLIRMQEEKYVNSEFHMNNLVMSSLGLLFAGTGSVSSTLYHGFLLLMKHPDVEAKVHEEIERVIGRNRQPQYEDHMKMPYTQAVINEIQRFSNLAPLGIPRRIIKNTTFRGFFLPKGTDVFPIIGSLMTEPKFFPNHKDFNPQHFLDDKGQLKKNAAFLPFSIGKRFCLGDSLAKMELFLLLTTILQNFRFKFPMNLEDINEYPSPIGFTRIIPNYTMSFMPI
# Turnover Numbers, CYP2A2 per record follows

Observe how each entry below is paired with its result.
cpd smiles: c1ccc(COc2ccc3cccnc3c2)cc1
target desc: Rat CYP2A2 (Rattus norvegicus, UniProt P15149)
Turnover Numbers, CYP2A2: 2.8 pmol product/min/pmol enzyme

cpd smiles: COc1ccc2c(C(F)(F)F)cc(=O)oc2c1
target desc: Rat CYP2A2 (Rattus norvegicus, UniProt P15149)
Turnover Numbers, CYP2A2: 0.08 pmol product/min/pmol enzyme

cpd smiles: CCOc1ccc2cc(C#N)c(=O)oc2c1
target desc: Rat CYP2A2 (Rattus norvegicus, UniProt P15149)
Turnover Numbers, CYP2A2: 0.04 pmol product/min/pmol enzyme

cpd smiles: O=C(OCc1ccccc1)c1ccccc1-c1c2ccc(=O)cc-2oc2cc(OCc3ccccc3)ccc12
target desc: Rat CYP2A2 (Rattus norvegicus, UniProt P15149)
Turnover Numbers, CYP2A2: 0.030 pmol product/min/pmol enzyme

Please examine the following record next.
Could you share which Turnover Numbers, CYP2A2 value was measured for `O=c1cc(C(F)(F)F)c2ccc(OCc3ccccc3)cc2o1` ?
0.26 pmol product/min/pmol enzyme

====

molecular target: human CYP3A4 (Homo sapiens); assay: Enzyme kinetics of substrate turnover by cDNA-expressed CYP3A4; type: biochemical; design: purchased GENTEST Corporation P202; host or cells: baculovirus/insect cells (microsomes, SUPERSOMES); details: CYP3A4, apparent Km
assay metric: Km (µM)
Give just the numeric value; µM need not be written.

Returns the measured Km for the input compound. Input: O=c1ccc2nc3ccc(OCc4ccccc4)cc3oc-2c1 [BzRes, 7-benzyloxyresorufin]
30

====

target: human CYP3A4 (Homo sapiens, UniProt P08684); conditions: human
Sequence (P08684 whole entry): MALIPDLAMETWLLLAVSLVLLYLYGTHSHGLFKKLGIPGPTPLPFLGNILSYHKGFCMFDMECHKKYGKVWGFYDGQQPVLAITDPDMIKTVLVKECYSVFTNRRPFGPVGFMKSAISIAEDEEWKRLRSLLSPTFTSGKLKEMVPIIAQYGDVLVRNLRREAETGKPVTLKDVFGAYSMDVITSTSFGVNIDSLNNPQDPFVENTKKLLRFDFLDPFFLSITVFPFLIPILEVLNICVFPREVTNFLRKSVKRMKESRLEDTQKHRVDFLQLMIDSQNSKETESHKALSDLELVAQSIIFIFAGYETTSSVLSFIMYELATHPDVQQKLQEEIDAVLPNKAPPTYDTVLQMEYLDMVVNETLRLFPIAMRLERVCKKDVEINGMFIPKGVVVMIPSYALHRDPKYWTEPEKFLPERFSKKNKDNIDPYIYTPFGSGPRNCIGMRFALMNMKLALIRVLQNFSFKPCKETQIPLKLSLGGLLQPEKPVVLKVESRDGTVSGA
// boundary case: Range equal to 10 maps to not satisfied; strictly smaller maps to satisfied

compound: Cc1ncc2n1-c1ccc(Cl)cc1C(c1ccccc1F)=NC2
target desc: human CYP3A4 (Homo sapiens, UniProt P08684)
category: not satisfied
--
compound: C#C[C@]1(O)CC[C@H]2[C@@H]3CCc4cc(O)ccc4[C@H]3CC[C@@]21C
target desc: human CYP3A4 (Homo sapiens, UniProt P08684)
category: satisfied
--
compound: Clc1ccc(COC(Cn2ccnc2)c2ccc(Cl)cc2Cl)c(Cl)c1 (stereo not drawn)
target desc: human CYP3A4 (Homo sapiens, UniProt P08684)
category: not satisfied

Lab note: Range threshold 10. Does this compound come in strictly under it? `Clc1ccccc1C(c1ccccc1)(c1ccccc1)n1ccnc1`
satisfied

For NC(=O)N1c2ccccc2C=Cc2ccccc21 [Carbamazepine] , is the recorded Range below the cut-off of 10?
satisfied

Just wondering, is Range of `COCC(=O)O[C@]1(CCN(C)CCCc2nc3ccccc3[nH]2)CCc2cc(F)ccc2[C@@H]1C(C)C` below 10?
not satisfied

====

Target: Rat CYP1A1 (Rattus norvegicus)
Sequence (P00185 1-524): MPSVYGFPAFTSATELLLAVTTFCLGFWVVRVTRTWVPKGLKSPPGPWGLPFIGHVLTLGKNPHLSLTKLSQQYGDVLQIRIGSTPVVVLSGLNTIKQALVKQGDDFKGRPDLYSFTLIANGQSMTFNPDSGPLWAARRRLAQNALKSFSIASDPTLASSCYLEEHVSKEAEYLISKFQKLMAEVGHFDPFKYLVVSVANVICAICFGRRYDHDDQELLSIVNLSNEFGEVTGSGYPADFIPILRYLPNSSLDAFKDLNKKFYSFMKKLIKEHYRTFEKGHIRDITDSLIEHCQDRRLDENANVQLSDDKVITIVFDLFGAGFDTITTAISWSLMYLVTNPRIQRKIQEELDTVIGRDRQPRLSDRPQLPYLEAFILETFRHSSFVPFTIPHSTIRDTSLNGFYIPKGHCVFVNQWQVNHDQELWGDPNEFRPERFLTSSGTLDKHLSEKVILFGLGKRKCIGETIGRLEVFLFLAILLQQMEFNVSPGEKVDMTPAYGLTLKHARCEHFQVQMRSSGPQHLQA
Experiment: Turnover of fluorometric substrates by rat CYP1A1
Conditions: substrate uM: Ia 2, AMMC 20, CEC 40, MFC 50, BFC 50, BQ 40, BzRes 50; 30 min; enzyme 50 nM (2.5 nM for CEC)
assay metric: Turnover Numbers, CYP1A1

compound: O=C(OCc1ccccc1)c1ccccc1-c1c2ccc(=O)cc-2oc2cc(OCc3ccccc3)ccc12 [Compound Ia, O-Benzylfluorescein Benzyl Ester]
Turnover Numbers, CYP1A1: 0.211 pmol product/min/pmol enzyme
--
compound: c1ccc(COc2ccc3cccnc3c2)cc1 [BQ, 7-Benzyloxyquinoline]
Turnover Numbers, CYP1A1: 5.7 pmol product/min/pmol enzyme
--
compound: O=c1cc(C(F)(F)F)c2ccc(OCc3ccccc3)cc2o1 [BFC, 7-Benzyloxy-4-trifluoromethylcoumarin]
Turnover Numbers, CYP1A1: 0.34 pmol product/min/pmol enzyme
--
compound: CC[N+](C)(CC)CCc1c(C)c2ccc(OC)cc2oc1=O [AMMC]
Turnover Numbers, CYP1A1: —^b
--
compound: COc1ccc2c(C(F)(F)F)cc(=O)oc2c1 [MFC, 7-Methoxy-4-trifluoromethylcoumarin]
Turnover Numbers, CYP1A1: 1.03 pmol product/min/pmol enzyme
--
compound: O=c1ccc2nc3ccc(OCc4ccccc4)cc3oc-2c1 [BzRes, 7-benzyloxyresorufin]
Turnover Numbers, CYP1A1: 1.35 pmol product/min/pmol enzyme

Hi! What's the reported Turnover Numbers, CYP1A1 for CCOc1ccc2cc(C#N)c(=O)oc2c1 [CEC, 7-Ethoxy-3-cyanocoumarin] on Rat CYP1A1 (Rattus norvegicus)?
78 pmol product/min/pmol enzyme

====

target: human CYP3A4 (Homo sapiens, UniProt P08684); experiment: High throughput cytochrome P450 inhibition screen, CYP3A4; conditions: Absolute Mean IC50 Values, BQ, substrate BQ
assay metric: pIC50
Quick note: pIC50 values are minus log10 of concentrations in mol/L.

I am curious: what pIC50 value has been reported for `CC[C@H]1OC(=O)[C@H](C)[C@@H](O[C@H]2C[C@@](C)(OC)[C@@H](O)[C@H](C)O2)[C@H](C)[C@@H](O[C@@H]2O[C@H](C)C[C@H](N(C)C)[C@H]2O)[C@](C)(O)C[C@@H](C)C(=O)[C@H](C)[C@@H](O)[C@]1(C)O` ?
4.26

====

Below is a list of entries, each paired with its recorded Turnover Numbers, CYP1A2 value.
Target: Rat CYP1A2 (Rattus norvegicus)
Sequence (P04799 1-513): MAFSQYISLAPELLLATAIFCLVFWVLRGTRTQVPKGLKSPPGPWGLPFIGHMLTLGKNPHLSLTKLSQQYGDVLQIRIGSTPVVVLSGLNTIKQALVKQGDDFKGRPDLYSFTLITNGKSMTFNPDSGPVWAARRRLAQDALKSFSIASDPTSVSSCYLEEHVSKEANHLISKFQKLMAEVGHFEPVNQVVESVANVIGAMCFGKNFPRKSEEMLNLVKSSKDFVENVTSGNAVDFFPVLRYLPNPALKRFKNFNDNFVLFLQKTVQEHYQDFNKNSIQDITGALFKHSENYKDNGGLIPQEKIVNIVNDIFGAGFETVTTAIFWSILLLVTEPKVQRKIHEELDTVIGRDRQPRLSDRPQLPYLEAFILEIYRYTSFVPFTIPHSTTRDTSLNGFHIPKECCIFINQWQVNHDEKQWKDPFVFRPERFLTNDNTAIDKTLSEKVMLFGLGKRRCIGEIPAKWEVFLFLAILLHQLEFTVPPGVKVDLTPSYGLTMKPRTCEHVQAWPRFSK
Experiment: Turnover of fluorometric substrates by rat CYP1A2
Conditions: substrate uM: Ia 2, AMMC 20, CEC 40, MFC 50, BFC 50, BQ 40, BzRes 50; 30 min; enzyme 50 nM

Example compounds with recorded Turnover Numbers, CYP1A2:
compound: COc1ccc2c(C(F)(F)F)cc(=O)oc2c1 [MFC, 7-Methoxy-4-trifluoromethylcoumarin]
recorded result: 1.32 pmol product/min/pmol enzyme
--
compound: O=C(OCc1ccccc1)c1ccccc1-c1c2ccc(=O)cc-2oc2cc(OCc3ccccc3)ccc12 [Compound Ia, O-Benzylfluorescein Benzyl Ester]
recorded result: 0.041 pmol product/min/pmol enzyme
--
compound: CCOc1ccc2cc(C#N)c(=O)oc2c1 [CEC, 7-Ethoxy-3-cyanocoumarin]
recorded result: 1.38 pmol product/min/pmol enzyme

Looking for the measured Turnover Numbers, CYP1A2 of O=c1ccc2nc3ccc(OCc4ccccc4)cc3oc-2c1 [BzRes, 7-benzyloxyresorufin] , can you help?
0.62 pmol product/min/pmol enzyme

// Turnover Numbers, CYP1A2 lookup, key: c1ccc(COc2ccc3cccnc3c2)cc1 [BQ, 7-Benzyloxyquinoline]
2.3 pmol product/min/pmol enzyme

====

biological target: Rat CYP3A1 (Rattus norvegicus, UniProt P04800); assay: Turnover of fluorometric substrates by rat CYP3A1; details: substrate uM: Ia 2, AMMC 20, CEC 40, MFC 50, BFC 50, BQ 40, BzRes 50; 30 min; enzyme 50 nM
Sequence (P04800 whole entry): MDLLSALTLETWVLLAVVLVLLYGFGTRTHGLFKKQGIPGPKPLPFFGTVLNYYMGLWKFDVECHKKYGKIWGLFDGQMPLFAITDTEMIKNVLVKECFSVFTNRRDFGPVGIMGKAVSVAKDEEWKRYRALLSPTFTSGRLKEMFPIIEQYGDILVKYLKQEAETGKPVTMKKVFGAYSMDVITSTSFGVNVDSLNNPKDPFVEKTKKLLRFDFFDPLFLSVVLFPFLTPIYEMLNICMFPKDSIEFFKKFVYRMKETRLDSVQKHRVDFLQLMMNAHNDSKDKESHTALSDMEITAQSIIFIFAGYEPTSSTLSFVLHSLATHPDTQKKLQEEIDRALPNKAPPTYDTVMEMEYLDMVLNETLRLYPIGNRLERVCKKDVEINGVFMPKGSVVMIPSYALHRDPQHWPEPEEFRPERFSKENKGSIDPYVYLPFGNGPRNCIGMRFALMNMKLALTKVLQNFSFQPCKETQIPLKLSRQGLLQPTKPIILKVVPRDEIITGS
assay metric: Turnover Numbers, CYP3A1

molecule: O=c1cc(C(F)(F)F)c2ccc(OCc3ccccc3)cc2o1 [BFC, 7-Benzyloxy-4-trifluoromethylcoumarin]
target desc: Rat CYP3A1 (Rattus norvegicus, UniProt P04800)
Turnover Numbers, CYP3A1: 1.33 pmol product/min/pmol enzyme
--
molecule: O=C(OCc1ccccc1)c1ccccc1-c1c2ccc(=O)cc-2oc2cc(OCc3ccccc3)ccc12 [Compound Ia, O-Benzylfluorescein Benzyl Ester]
target desc: Rat CYP3A1 (Rattus norvegicus, UniProt P04800)
Turnover Numbers, CYP3A1: 0.027 pmol product/min/pmol enzyme
--
molecule: O=c1ccc2nc3ccc(OCc4ccccc4)cc3oc-2c1 [BzRes, 7-benzyloxyresorufin]
target desc: Rat CYP3A1 (Rattus norvegicus, UniProt P04800)
Turnover Numbers, CYP3A1: 0.06 pmol product/min/pmol enzyme
--
molecule: c1ccc(COc2ccc3cccnc3c2)cc1 [BQ, 7-Benzyloxyquinoline]
target desc: Rat CYP3A1 (Rattus norvegicus, UniProt P04800)
Turnover Numbers, CYP3A1: 8.4 pmol product/min/pmol enzyme

For the molecule shown here, CCOc1ccc2cc(C#N)c(=O)oc2c1 [CEC, 7-Ethoxy-3-cyanocoumarin] , give the reported Turnover Numbers, CYP3A1.
0.08 pmol product/min/pmol enzyme
